Tested on: human glioma cell line U251
Experiment: Proliferation of U251 cells (CCK8 kit)
Format: cell-based
Conditions: U-251, U251, 24 h, CCK8, read-out: Half maximal inhibitory concentration (IC50)
Below, each entry is listed alongside its reported IC50.

C=CCc1ccc(O)c(-c2cc(CC=C)ccc2OCC[S+]([O-])CCCCN=C=S)c1 (centres unmarked) [CT-3] ... 7.75 µM

Note: attention shifts to another entry.
Q: So what does the record say about IC50 for C[S+]([O-])CCCCN=C=S (centres unmarked) [Sulforaphane] ?
A: 22.5 µM

* * *

System: human glioma cell line U251
Test: Proliferation of U251 cells (CCK8 kit)
Assay type: cell-based
Conditions: U-251, 24 h, read-out: Half maximal inhibitory concentration (IC50)
Measured Parameter: IC50

Q: # get_value(readout= IC50, system= human glioma cell line U251) for "C=CCc1ccc(O)c(-c2cc(CC=C)ccc2O)c1"
A: > 45 µM

Just for reference, patent US20240299556A1 is where these values come from.
